- Tested on: Pseudomonas aeruginosa
- assayName: in vitro antibiotic activity by the Gradient Plate method, Pseudomonas
- Type: cell-based
- runParameters: read-out: Minimum Inhibitory Concentration vs. Pseudomonas aeruginosa
// reported MIC for each item listed
valueKind: MIC (µg/mL)

| compound | reportedResult |
| --- | --- |
| NC(=O)OCC1=C(C(=O)O)N2C(=O)C(NC(=O)C(NC(=O)NC(=O)c3ccco3)c3ccc(O)cc3)C2SC1 (stereo not shown) | 10 |
| CNC(=O)N(C)C(=O)NC(C(=O)NC1C(=O)N2C(C(=O)O)=C(COC(N)=O)CSC12)c1ccc(O)cc1 (stereo not shown) | 13.5 |
| CNC(=O)N(C)C(=O)NC(C(=O)NC1C(=O)N2C(C(=O)O)=C(COC(N)=O)CSC12)c1ccccc1 (stereo not shown) | 18.3 |
| CNC(=O)OCC1=C(C(=O)O)N2C(=O)C(NC(=O)C(NC(=O)N(C)C(=O)NC)c3ccccc3)C2SC1 (stereo not shown) | 30 |
